- System: painful stretchings induced by acetic acid
- TEST PROTOCOL: acetic acid induced stretching (analgesic effect)
- RECORDED CONDITIONS: 100 mg/kg oral, 0.7% acetic acid i.p., mice
METRIC: Analgesic (percentage diminution of times of painful stretchings) (%)
Please respond with the number in % and leave the unit unwritten.

Exam item: Checklist item: Analgesic (percentage diminution of times of painful stretchings) tested on painful stretchings induced by acetic acid, entry CCCc1ccc(C(=O)c2ccc(O)cc2)cc1 [compound 104] , value?
Marked response: 13.2

Exam item: Checklist item: Analgesic (percentage diminution of times of painful stretchings) tested on painful stretchings induced by acetic acid, entry O=C(Cc1ccccc1)c1ccccc1 [compound 47] , value?
Marked response: 13.1

Exam item: Checklist item: Analgesic (percentage diminution of times of painful stretchings) tested on painful stretchings induced by acetic acid, entry Cc1cc(C)c(C(=O)c2ccccc2)cc1C [compound 32] , value?
Marked response: 26.2

Exam item: Checklist item: Analgesic (percentage diminution of times of painful stretchings) tested on painful stretchings induced by acetic acid, entry COc1cc(OC)c(C(=O)c2ccccc2)c(OC)c1 [compound 76] , value?
Marked response: 13.9

We now examine a further compound.
Exam item: Checklist item: Analgesic (percentage diminution of times of painful stretchings) tested on painful stretchings induced by acetic acid, entry O=C(c1ccccc1)c1ccccc1F [compound 15] , value?
Marked response: 18.5

###

- TEST PROTOCOL: in vivo
- RECORDED CONDITIONS: mouse, po
Parameter LD50 at 72 h: see the listing below.

Exam item: Give the measured LD50 at 72 h of CCCCc1ccc(C(=O)c2ccccc2C)cc1 [compound 40] .
Marked response: 2000 mg/kg

Exam item: Give the measured LD50 at 72 h of Cc1ccc(C(=O)c2cccc(I)c2)c(C)c1 [compound 162] .
Marked response: 1500 mg/kg

New cases:
Exam item: Give the measured LD50 at 72 h of Cc1cc(C)c(C(=O)c2cccc(F)c2)c(C)c1 [compound 125] .
Marked response: 1000 mg/kg

Exam item: Give the measured LD50 at 72 h of Cc1ccc(C(=O)c2ccccc2)cc1C [compound 72] .
Marked response: 1000 mg/kg

Exam item: Give the measured LD50 at 72 h of Cc1cc(C)c(C(=O)c2ccc(I)cc2)c(C)c1 [compound 166] .
Marked response: 5000 mg/kg

Exam item: Give the measured LD50 at 72 h of CCCCCc1ccc(C(=O)c2cccc(C)c2)cc1 [compound 89] .
Marked response: 10000 mg/kg

Exam item: Give the measured LD50 at 72 h of CCCC(C)c1ccc(C(=O)c2ccccc2F)cc1 (stereo not shown) [compound 121] .
Marked response: 3000 mg/kg

Exam item: Give the measured LD50 at 72 h of CCc1cc(CC)c(C(=O)c2ccccc2)c(CC)c1 [compound 13] .
Marked response: 2000 mg/kg

Exam item: Give the measured LD50 at 72 h of Cc1cc(C)c(C(=O)c2ccc(F)cc2)c(C)c1 [compound 131] .
Marked response: 2000 mg/kg

Exam item: Give the measured LD50 at 72 h of CCCCCCc1ccc(C(=O)C(=O)c2ccccc2)cc1 [compound 56] .
Marked response: 10000 mg/kg

Exam item: Give the measured LD50 at 72 h of CCCCCc1ccc(C(=O)c2ccccc2C)cc1 [compound 41] .
Marked response: 3000 mg/kg

Exam item: Give the measured LD50 at 72 h of CCCCCc1ccc(C(=O)c2ccccc2F)cc1 [compound 9] .
Marked response: 3000 mg/kg

Exam item: Give the measured LD50 at 72 h of CCCCCc1ccc(C(=O)c2cccc(F)c2)cc1 [compound 124] .
Marked response: 3000 mg/kg

###

Parameter LD50 at 72 h: see the listing below.
- TEST PROTOCOL: in vivo
- RECORDED CONDITIONS: mouse, po
Please respond with the number in mg/kg and leave the unit unwritten.

Take a look at these entries with their results.
Exam item: Give the measured LD50 at 72 h of CCCCCCc1ccc(C(=O)c2ccccc2)cc1 [compound 24] .
Marked response: 6000

Exam item: Give the measured LD50 at 72 h of CCCCc1ccc(CCCC)c(C(=O)c2ccc(C)cc2)c1 [compound 17] .
Marked response: 2000

Exam item: Give the measured LD50 at 72 h of O=C(c1ccc(F)cc1)c1ccc(F)cc1 [compound 114] .
Marked response: 2000

New cases:
Exam item: Give the measured LD50 at 72 h of CCCCOc1ccc(C(=O)c2c(C)cc(C)cc2C)cc1 [compound 94] .
Marked response: 500

Exam item: Give the measured LD50 at 72 h of CCCc1ccc(C(=O)c2ccc(Br)cc2)cc1 [compound 150] .
Marked response: 2000

Exam item: Give the measured LD50 at 72 h of CCCCCc1ccc(C(=O)c2cccc(Cl)c2)cc1 [compound 140] .
Marked response: 1000

Exam item: Give the measured LD50 at 72 h of CCCc1ccc(C(=O)c2ccccc2)cc1 [compound 20] .
Marked response: 2000

Exam item: Give the measured LD50 at 72 h of CCc1ccc(C(=O)c2ccc(CC)cc2)cc1 [compound 106] .
Marked response: 1000

Exam item: Give the measured LD50 at 72 h of CCCCCc1ccc(C(=O)c2ccc(O)cc2)cc1 [compound 105] .
Marked response: 4000

Exam item: Give the measured LD50 at 72 h of Cc1ccc(C(=O)c2ccc(I)cc2)c(C)c1 [compound 165] .
Marked response: 5000

Exam item: Give the measured LD50 at 72 h of CCCCCCOc1ccc(C(=O)c2ccc(Cl)cc2)cc1 [compound 138] .
Marked response: 2500

###

- Tested on: painful stretchings induced by acetic acid
- TEST PROTOCOL: acetic acid induced stretching (analgesic effect)
- RECORDED CONDITIONS: 100 mg/kg oral, 0.7% acetic acid i.p., mice
Rule: Analgesic (percentage diminution of times of painful stretchings) below 10% gives yes. Equal to or above 10% gives no.

See these solved cases before continuing.
Exam item: Threshold test, Analgesic (percentage diminution of times of painful stretchings) < 10%: O=C(c1ccccc1)c1ccccc1
Marked response: no

Exam item: Threshold test, Analgesic (percentage diminution of times of painful stretchings) < 10%: O=C(C(=O)c1ccccc1)c1ccccc1
Marked response: no

Exam item: Threshold test, Analgesic (percentage diminution of times of painful stretchings) < 10%: CCCCc1ccc(C(=O)c2ccc(Cl)cc2)cc1
Marked response: yes

Exam item: Threshold test, Analgesic (percentage diminution of times of painful stretchings) < 10%: CC(C)Cc1ccc(C(=O)c2ccccc2)cc1
Marked response: no

Alright, here's another compound for you.
Exam item: Threshold test, Analgesic (percentage diminution of times of painful stretchings) < 10%: CCCCc1ccc(C(=O)c2ccc(F)cc2C)cc1
Marked response: no

###

- TEST PROTOCOL: in vivo
- RECORDED CONDITIONS: mouse, po
- Experimental: Each sample was dissolved in olive oil or dispersed in 1% Tween 20 aqueous solution.
Parameter LD50 at 72 h: see the listing below.

Exam item: Give the measured LD50 at 72 h of CCCCCCCCc1ccc(C(=O)c2ccccc2I)cc1 .
Marked response: > 10000 mg/kg

Exam item: Give the measured LD50 at 72 h of CCCCCCc1ccc(C(=O)c2ccc(C)cc2)cc1 .
Marked response: > 10000 mg/kg

Exam item: Give the measured LD50 at 72 h of COc1ccc(C(=O)c2ccccc2)cc1 .
Marked response: > 10000 mg/kg

Exam item: Give the measured LD50 at 72 h of CCCCCCCCc1ccc(C(=O)c2ccc(F)cc2)cc1 .
Marked response: > 10000 mg/kg

Exam item: Give the measured LD50 at 72 h of CCCc1ccc(C(=O)c2ccccc2Cl)cc1 .
Marked response: 2000 mg/kg

Exam item: Give the measured LD50 at 72 h of Cc1ccc(C(=O)c2ccccc2Br)c(C)c1 .
Marked response: 1000 mg/kg

New cases:
Exam item: Give the measured LD50 at 72 h of CCCCc1ccc(C(=O)c2ccc(CCC)cc2)cc1 .
Marked response: 4000 mg/kg

Exam item: Give the measured LD50 at 72 h of COc1ccc(C(=O)c2ccc(Cl)cc2)cc1 .
Marked response: 2000 mg/kg

Exam item: Give the measured LD50 at 72 h of CCCCc1ccc(C(=O)c2cccc(F)c2)cc1 .
Marked response: 1500 mg/kg

###

Parameter LD50 at 72 h: see the listing below.
- TEST PROTOCOL: in vivo
- RECORDED CONDITIONS: mouse, po
Please respond with the number in mg/kg and leave the unit unwritten.

Exam item: Give the measured LD50 at 72 h of CC(C)(C)c1ccc(C(=O)c2ccccc2)cc1 [compound 22] .
Marked response: 2000

New cases:
Exam item: Give the measured LD50 at 72 h of CCCCCc1ccc(C(=O)c2ccc(OC)cc2)cc1 [compound 45] .
Marked response: 5000

Exam item: Give the measured LD50 at 72 h of CCCCOc1ccc(C(=O)c2ccc(Cl)cc2)cc1 [compound 137] .
Marked response: 2000

Exam item: Give the measured LD50 at 72 h of CCCCCCc1ccc(C(=O)c2ccc(C)cc2C)cc1 [Active ingredient No. 4] .
Marked response: 4000

Exam item: Give the measured LD50 at 72 h of CCCCCCc1ccc(C(=O)c2c(C)cc(C)cc2C)cc1 [compound 103] .
Marked response: 500

Exam item: Give the measured LD50 at 72 h of Cc1cc(C)c(C(=O)c2ccccc2)c(C)c1 [compound 30] .
Marked response: 1500
